- Test system: BT-474
- assay remarks: Cytotoxicity against Her2-overexpressing human BT474 cells after 24 hrs by MTT assay
- Type: functional, cell-based
- test context: BT-474, 24 h
pIC50: −log10 of the molar value.
assay readout: pIC50

>>> df
                                compound  target_of_assay  assay_readout  numeric_result
0  CC1=CC(=O)c2c(O)cccc2C1=O [PLUMBAGIN]           BT-474          pIC50            5.74
